B1: OR4K15 (parent)
chain: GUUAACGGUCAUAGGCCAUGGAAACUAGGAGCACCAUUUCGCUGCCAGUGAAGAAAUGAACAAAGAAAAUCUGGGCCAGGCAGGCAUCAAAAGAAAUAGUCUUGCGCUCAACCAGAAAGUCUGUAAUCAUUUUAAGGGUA

Variants of: B1
Experiment: self-cleavage, relative activity (ratio to wild type); higher = more cleavage; in vitro, sequencing; the parent is a self-cleaving ribozyme
Below, each of the variants is paired with its reported self-cleavage value.

Past entries and their recorded results:
- GUUAACGAUCAUAGGCCAUGGGAACUAGGAGCACCAUUUCGCUGCCAGUGAAGAAAUGAACAAAGAAAAUCUGGGCCAGGCAGGCAUCAAAAGAAAUAGUCUUGCGCUCAACCAGAAAGUCUGUAAUCAUUUUAAGGGUA: 1.39
- GUUAACGGUCAUAGGCCAUGGAAACUAGGAGCACCAUUUCGCUGCCAGUGAAGUAAUGAACAAAGAAAACCUGGGCCAGGCAGGCAUCAAAAGAAAUAGUCUUGCGCUCAACCAGAAAGUCUGUAAUCAUUUUAAGGGUA: 0.53
- GUUAACGGCCAUAGGCCAUGGAAACUAGGAGCACCAUUUCGCUGCCAGUGAAGAAAUGAACAAAGAAAAUCUGGGCCAGGCAGGCAUCAAACGAAAUAGUCUUGCGCUCAACCAGAAAGUCUGUAAUCAUUUUAAGGGUA: 2.26
- GUUAACGGUCAUAGGCCAUGGAAACUAGGAGCACCAUUUCGCUGCCAGUGAAGUAAUGAACAAAGAAAAUCUGGGCCAGGCAGGCAUCAAAAGAAAUAGUCUUGCACUCAACCAGAAAGUCUGUAAUCAUUUUAAGGGUA: 0.02
- GUUAACGGUCAUAGGCCAUGGAAACUAGGAGCACCAUUUCGCUGCCAGUGAAGAAAUGAACACAGAAAAUCUGGGCCAGGCAGGCAUCAGAAGAAAUAGUCUUGCGCUCAACCAGAAAGUCUGUAAUCAUUUUAAGGGUA: 1.79
- GUUAACGGUCAUAGGCCAUGGAAACUAGGAGCACCAUUUCGCUGCCGGUGAAGAAAUGAACAAAGAAAAUCUGGGCCAGGCAGGCACCAAAAGAAAUAGUCUUGCGCUCAACCAGAAAGUCUGUAAUCAUUUUAAGGGUA: 0.42

## Task Quickly give me recorded self-cleavage for GUUAGCGGUCAUAGGCCAUGGAAACUAGGAGCACCAUUUCGCUGCCAGUGAAGAAAUGAACAAAGAAAAUCUGGGCCAGGCAGGCAUCAAAAGAAAUAGUCUUGCGCUCAACCAGAAAGUCUGUAAUGAUUUUAAGGGUA
## Result 0.8

## Task Quickly give me recorded self-cleavage for GUUAACGGUCAUAGGCCAUGGAAACUAGGAGCACCAUGUCGCUGCCAGUGAAGAAAUGAACAAAGAAAAUCUGGGCCAGGCAGGCAUCAAAAGAAAUAGUCUUGCGCUCAACCAGAAGGUCUGUAAUCAUUUUAAGGGUA
## Result 0.95

## Task Quickly give me recorded self-cleavage for GUUAACGGUCAUAGGCCAUGGAAACCAGGAGCACCAUUUCGCUGCCAGUGAAGAAAUGAACAAAGAAAAUCUGGGCCAGGCUGGCAUCAAAAGAAAUAGUCUUGCGCUCAACCAGAAAGUCUGUAAUCAUUUUAAGGGUA
## Result 0.28

## Task Quickly give me recorded self-cleavage for GUUAACGGUCAUAGGCCAUGGAAACUAGGAGCACCAUUUCGCUGCCAGUGAAGAAGUGAACAAAGAAAAUCUGGGCCUGGCAGGCAUCAAAAGAAAUAGUCUUGCGCUCAACCAGAAAGUCUGUAAUCAUUUUAAGGGUA
## Result 0.2

## Task Quickly give me recorded self-cleavage for GUUAACGGUCAUAGGCCAUGGUAACUAGGAGCACCAUUUCGCUGCCAGUGAAGAAAUGAACAAAGAAAAUCUGGGCCAGGCAGGCAUCGAAAGAAAUAGUCUUGCGCUCAACCAGAAAGUCUGUAAUCAUUUUAAGGGUA
## Result 1.31

## Task Quickly give me recorded self-cleavage for GUUAACGGUCAUAGGCCAUGGAAACUAGGAGCACCAUUUCGCUGCCAGUGAAGAAAUGAACAAAGAAAAUCCGGGCCAGGCAGGCAUCAAAAGAAAUAGUCUUGCGCCCAACCAGAAAGUCUGUAAUCAUUUUAAGGGUA
## Result 0.01
